System: HeLa Kyoto;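 also: synchronized HeLa Kyoto cells (double thymidine block for G1/S, nocodazole release for mitosis), protein amounts in NP-40 versus SDS lysates quantified by mass spectrometry, three biological replicates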
PROTOCOL: solubility change mitosis vs G1/S (difference of NP-40 vs SDS log2 ratios) (log2 ratio difference); higher = more soluble in mitosis
ASSAY ENDPOINT: solubility change mitosis (log2)
# respond with the number and nothing more

Record request: solubility change mitosis (log2) value, item MDSSAVITQISKEEARGPLRGKGDQKSAASQKPRSRGILHSLFCCVCRDDGEALPAHSGAPLLVEENGAIPKQTPVQYLLPEAKAQDSDKICVVIDLDETLVHSSFKPVNNADFIIPVEIDGVVHQVYVLKRPHVDEFLQRMGELFECVLFTASLAKYADPVADLLDKWGAFRARLFRESCVFHRGNYVKDLSRLGRDLRRVLILDNSPASYVFHPDNAVPVASWFDNMSDTELHDLLPFFEQLSRVDDVYSVLRQPRPGS [CTDSP1] -0.0207

GET /values?readout=solubility change mitosis (log2)&item= MFFWCACCLMVAWRVSASDAEHCPELPPVDNSIFVAKEVEGQILGTYVCIKGYHLVGKKTLFCNASKEWDNTTTECRLGHCPDPVLVNGEFSSSGPVNVSDKITFMCNDHYILKGSNRSQCLEDHTWAPPFPICKSRDCDPPGNPVHGYFEGNNFTLGSTISYYCEDRYYLVGVQEQQCVDGEWSSALPVCKLIQEAPKPECEKALLAFQESKNLCEAMENFMQQLKESGMTMEELKYSLELKKAELKAKLL [C4BPB] -0.0172

I'd like to know its solubility change mitosis (log2). The sequence in question is MLLKEYRICMPLTVDEYKIGQLYMISKHSHEQSDRGEGVEVVQNEPFEDPHHGNGQFTEKRVYLNSKLPSWARAVVPKIFYVTEKAWNYYPYTITEYTCSFLPKFSIHIETKYEDNKGSNDTIFDNEAKDVEREVCFIDIACDEIPERYYKESEDPKHFKSEKTGRGQLREGWRDSHQPIMCSYKLVTVKFEVWGLQTRVEQFVHKVVRDILLIGHRQAFAWVDEWYDMTMDEVREFERATQEATNKKIGIFPPAISISSIPLLPSSVRSAPSSAPSTPLSTDAPEFLSVPKDRPRKKSAPETLTLPDPEKKATLNLPGMHSSDKPCRPKSE [PITPNC1] -0.0509

# credit: the supplement of paper PMC5998384
